- experimentalContext: buffer, pH 7.4
In this section, each of the compounds is paired with its reported LogD7.4.

compound: O=c1[nH]c2c(O)ccc([C@@H](O)CNCCc3cccc(CN4CCCC4)c3)c2s1
LogD7.4: -0.28
--
compound: CN1Cc2c(N)cccc2C(c2ccccc2)C1 (centres undefined) [NOMIFENSINE]
LogD7.4: 2.11
--
compound: CN1CCC[C@@H]1CCO[C@](C)(c1ccccc1)c1ccc(Cl)cc1 [CLEMASTINE]
LogD7.4: 3.48
--
compound: CCS(=O)(=O)c1cccc(-c2cc(C(F)(F)F)ccc2OCC(=O)O)c1
LogD7.4: -0.66

---

- assayProcedure: physchem
- experimentalContext: octan-1-ol/water, pH 7.4, LogD7.4
# Lookup of reported logD keyed by entry

molecule: CC#CCn1c(=O)c2c(-c3cncn3C)n(Cc3ccnc4ccc(Cl)cc34)nc2n(CC2CC2)c1=O
logD: 3.61
//
molecule: COc1cccc2c(O)cc(-c3ccccc3)nc12
logD: 2.3
//
molecule: COc1c(C)c2c(c(O)c1C/C=C(\C)CCC(=O)OCCN1CCOCC1)C(=O)OC2 [MYCOPHENOLATE MOFETIL]
logD: 2.26
//
molecule: CC(C)(C)NC(=O)C(c1ccncc1)N(Cc1ccco1)C(=O)c1ccc(-c2ccccc2)[nH]1 (centres undefined)
logD: 4.13
//
molecule: Cc1ccc(-c2nccn2C)cc1NC(=O)c1ccc(OCc2ccccn2)cc1
logD: 2.83
//
molecule: COc1cc(Nc2nccc(N(C)c3cc(CO)ccc3C)n2)cc(N2CCOCC2)c1
logD: 3.9
//
molecule: O=C(NS(=O)(=O)N1CCC(N2CCC(Oc3ccc(Cl)c(Cl)c3)CC2)CC1)c1ccccc1
logD: 2.14
//
molecule: Cc1oc(CN2CCNCC2)cc1C(=O)NCC12CC3CC(CC(C3)C1)C2
logD: 1.03
//
molecule: C=CC(=O)Nc1cccc(CN2C(=O)N(c3c(Cl)c(OC)cc(OC)c3Cl)Cc3cnc(NCCCCN(CC)CC)nc32)c1
logD: 2.04

---

- assayProcedure: physchem
- experimentalContext: octan-1-ol/water, pH 7.4, LogD7.4

compound: CCn1c(=O)ccc2cnc(Nc3ccc(OC)c(OC)c3)nc21
logD: 2.7
//
compound: CS(=O)(=O)c1ccc2c(C(=O)NC[C@@H](O)CN3CCC(Oc4ccc(C#N)c(Cl)c4)CC3)c[nH]c(=O)c2c1
logD: 1.41
//
compound: Clc1ccc(C(c2ccccc2)N2CCNCC2)cc1 (configuration not stated) [NORCHLORCYCLIZINE]
logD: 1.94
//
compound: COc1ccccc1CNCc1ccc(CCNC[C@H](O)c2ccc(O)c3[nH]c(=O)sc23)cc1
logD: 0.15
//
compound: C[C@H](CO)Nc1nc(SCc2cccc(F)c2F)nc2[nH]c(=O)ccc12
logD: 3.36
//
compound: NC(=O)c1cncc(-c2ccc([C@H]3CC[C@H](CC(=O)O)CC3)cc2)c1
logD: 0.22
//
compound: COc1cc(N2CCN(C(C)=O)CC2)ccc1Nc1ncc(Cl)c(-c2cnc3c(OC)cccn23)n1
logD: 3.5
//
compound: Cc1c(Sc2ccc(Cl)cc2)c2cc(S(C)(=O)=O)ccc2n1CC(=O)O
logD: 0.54
//
compound: CCN(c1ccnc(Nc2cc(N3CCOCC3)cc(N3CCOCC3)c2)n1)c1cc(CO)ccc1C
logD: 3.8
//
compound: Cc1ccc(S(=O)(=O)Nc2c(C(=O)N[C@@H](C)C(C)(C)C)c(C)nn2-c2ccccc2)cc1
logD: 1.44
//
compound: CC(CO)(CO)Nc1nc(SCc2cccc(F)c2F)nc2nc(N)sc12
logD: 2.87
//
compound: Cc1c(S(=O)(=O)c2ccc(Cl)cc2)c2cc(F)ccc2n1CC(=O)O
logD: -0.16
//
compound: c1ccc2[nH]c(-c3cscn3)nc2c1 [THIABENDAZOLE]
logD: 2.35
//
compound: COc1ccc(-c2nc3c(NCCCNC(C)=O)c(Br)cnc3[nH]2)cc1
logD: 3.28
//
compound: Cc1nc(C(=O)N2CCCC3(CCN(Cc4ccc(Cl)cc4)CC3)C2)cs1
logD: 0.64
//
compound: CC(C)(C(=O)Nc1nnc(C(=O)Nc2ccc(N3CCOCC3)cc2)o1)c1ccc(Cl)cc1
logD: 2.96
//
compound: O=c1oc2ccc(O)cc2cc1-c1ccc(O)cc1
logD: 2.9
//
compound: Cc1ccc(C(NC(=O)c2ccccc2O)C(=O)Nc2c(C)cccc2C)s1 (configuration not stated)
logD: 4.05
//
compound: O=C(Nc1ncc(F)s1)[C@H](CC1CCOCC1)c1ccc(S(=O)(=O)C2CC2)cc1
logD: 3.19
//
compound: NC(=O)Cc1nc(-c2ccccc2)cs1
logD: 1.3
//
compound: N#Cc1cccc(-c2cc(C(F)(F)F)ccc2OCC(=O)O)c1
logD: 0.05
//
compound: Cc1cn([C@H]2CCCN([C@H](CC(C)(C)C)c3ccc(C(=O)O)c(Oc4cccc(Br)c4)c3)C2)c(=O)[nH]c1=O
logD: 1.09
//
compound: FC(F)c1nc2ccccc2[nH]1
logD: 2.02
//
compound: CC(=O)Nc1ccc2ccn(-c3cc(NC4COC4)n4ncc(C#N)c4n3)c2c1
logD: 2.24
//
compound: O=C1COc2c(CCNCCN(C(=O)CCNCCc3ccc(Cl)c(Cl)c3)C3CCCCC3)ccc(O)c2N1
logD: 2.23
//
compound: N#C[C@]1(NC(=O)[C@@H](N)Cc2cccs2)C[C@H]1c1ccccc1
logD: 1.5
//
compound: CN(C)CCCOc1nn(Cc2ccccc2)c2ccccc12 [BENZYDAMINE]
logD: 2.4
//
compound: CCS(=O)(=O)c1ccc(-c2cc(C(F)(F)F)ccc2OCC(=O)O)c(C)c1
logD: -0.45
//
compound: Cc1nc2nc(NC(=O)c3ccc(F)cc3)nn2c(O)c1Cc1ccccc1
logD: 2.2
//
compound: C/N=C(\S)n1nc(-c2ccc(Cl)cc2)nc1N
logD: 4.12
//
compound: CC(=O)c1noc(C)c1C(=O)Nc1nccs1
logD: 1.94
//
compound: Cc1[nH]c2ccccc2c1CCNCc1ccc(/C=C/C(=O)NO)cc1 [PANOBINOSTAT]
logD: 1.1
//
compound: CNc1c(Br)cnc2nc(-c3ccnc(N)c3)[nH]c12
logD: 2.83
//
compound: O=C(Oc1ccccc1)N1CCOCC1
logD: 1.3
//
compound: CCOC(=O)c1ccc(OCCC2CN(c3ccc(C)nn3)CCO2)cc1 (configuration not stated)
logD: 2.7
//
compound: O=c1cc(-c2cccnc2)[nH]c2cc(Cc3ccccc3)ccc12
logD: 3.46
//
compound: Cc1ccc(NC(=O)c2ccnc(N3CCOCC3)c2)cc1Nc1ccnc(OCC(C)(C)CN(C)C)n1
logD: 2.2
//
compound: NC(=O)c1ccccc1O [SALICYLAMIDE]
logD: 1.09
//
compound: COc1ccc(-c2nc3c(NCCCNC(=O)c4ccccc4)c(Br)cnc3[nH]2)cc1
logD: 0.25
//
compound: O=C(O)Cc1ccc(-c2ccc(NC(=O)c3nnc(Nc4ccccc4F)o3)cc2)cc1
logD: 1.5
//
compound: CCN(CC)C(=O)c1ccc2[nH]c(-c3cc(C)cc(C)c3)c(CCNCCCCc3ccncc3)c2c1
logD: 3.3
//
compound: C#CCN(c1cc(Nc2ccc(OCC(O)CN(C)C)cc2)ncn1)c1cc(Cl)ccc1Cl (configuration not stated)
logD: 2.8
